- target_or_system: T1, gp130 on HepG2 B6 cells (UniProt P40189 23-918, limits assumed)
- T1 sequence (looked up): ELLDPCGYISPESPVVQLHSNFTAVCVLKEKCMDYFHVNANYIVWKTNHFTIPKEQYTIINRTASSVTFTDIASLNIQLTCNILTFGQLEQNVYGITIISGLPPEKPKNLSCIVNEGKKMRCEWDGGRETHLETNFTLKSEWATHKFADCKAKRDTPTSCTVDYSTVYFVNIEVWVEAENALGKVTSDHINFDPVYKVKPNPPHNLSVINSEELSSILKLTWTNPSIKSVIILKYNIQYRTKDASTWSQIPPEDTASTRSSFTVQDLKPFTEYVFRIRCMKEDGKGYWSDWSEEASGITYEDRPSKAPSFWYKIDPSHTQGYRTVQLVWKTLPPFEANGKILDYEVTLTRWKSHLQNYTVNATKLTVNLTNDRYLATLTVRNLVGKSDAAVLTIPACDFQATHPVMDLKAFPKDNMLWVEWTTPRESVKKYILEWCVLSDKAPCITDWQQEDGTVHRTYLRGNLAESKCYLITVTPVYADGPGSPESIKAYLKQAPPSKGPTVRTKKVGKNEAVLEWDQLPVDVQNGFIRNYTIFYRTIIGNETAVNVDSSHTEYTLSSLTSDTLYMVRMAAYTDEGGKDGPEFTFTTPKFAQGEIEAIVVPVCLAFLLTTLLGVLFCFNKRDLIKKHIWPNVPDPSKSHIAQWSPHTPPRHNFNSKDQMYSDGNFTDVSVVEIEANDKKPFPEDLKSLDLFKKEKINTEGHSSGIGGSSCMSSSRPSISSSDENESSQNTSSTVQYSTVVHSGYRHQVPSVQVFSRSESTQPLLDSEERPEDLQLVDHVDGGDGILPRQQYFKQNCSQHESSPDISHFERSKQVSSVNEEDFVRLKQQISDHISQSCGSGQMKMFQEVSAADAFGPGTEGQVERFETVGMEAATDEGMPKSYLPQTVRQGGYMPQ
- assay_info: cell-based or functional assay
metric: sPAP HepG2 B6 assay: Expt 1 % (EC50 as % of wild type EC50)

* OSM-GST mutant N123A (ligand, not shown: a dimerising Fc or GST; large carriers; small tags and cut ends, Alanine mutant of m4; also called (22)N123A; 22 N123A) AAIGSCSKEYRVLLGQLQKQTDLMQDTSRLLDPYIRIQGLDVPKLREHCRERPGAFPSEETLRGLGRRGFLQTLNATLGCVLHRLADLEQRLPKAQDLERSGLNIEDLEKLQMARPNILGLRANIYCMAQLLDNSDTAEPTKAGRGASQPPTPTPASDAFQRKLEGCRFLHGYHRFMHSVGRVFSKWGESPNRSRR | 157%
